B1: HDV Ribozyme (parent)
chain: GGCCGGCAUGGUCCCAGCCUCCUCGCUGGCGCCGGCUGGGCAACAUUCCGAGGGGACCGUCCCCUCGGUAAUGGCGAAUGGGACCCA

variants of: B1; assay: self-cleavage, relative activity (ratio to wild type); higher = more cleavage; co-transcriptional
Recorded self-cleavage by entry
Respond using a number only.

Some variants with known self-cleavage results, for comparison:
> print(dat)
   sequence.variant  readout.number
1         G73C A77G            0.44
2         C21A C48G           0.122
3         U46G U60C           0.665
4         A51G C64G           0.902

Which self-cleavage reading was recorded for the variant C19U U27A ? 0.332

What do we get for C62A G81C ? 0.138
